# melting point listing for each entry below
measure.name: melting point (°C)

| molecule | measure.name | censoring.qualifier | test.result |
| --- | --- | --- | --- |
| COc1ccc(Nc2nc(NCCCCCO)nc(N(C)C3CCNCC3)n2)cc1Cl | melting point | = | 101 |
| COc1ccc(Nc2nc(Nc3ccc(OC)c(Cl)c3)nc(NC3CCCCCC3)n2)cc1Cl | melting point | = | 183 |
| COc1ccc(Nc2nc(Nc3ccc(OC)c(F)c3)nc(OCC3CCCCC3)n2)cc1F | melting point | = | 181 |
| COc1ccc(Nc2nc(Cl)nc(OCC3CCCCC3)n2)cc1Cl | melting point | = | 114 |
| CCN1CCCC1CNc1nc(NCC2CCCCC2)nc(Nc2ccc(OC)c(F)c2)n1 (stereo not shown) | melting point | = | 72 |
| COc1ccc(Nc2nc(Nc3ccc(OC)c(Cl)c3)nc(OCC3CCCCC3)n2)cc1Cl | melting point | = | 188 |
| COc1ccc(Nc2nc(Cl)nc(OCC3CCCCC3)n2)cc1F | melting point | = | 98 |
| COc1ccc(Nc2nc(NN3CCCCCC3)nc(N(C)C3CCNCC3)n2)cc1Cl | melting point | = | 81 |
| CCN1CCCC1CNc1nc(Nc2ccc(OC)c(F)c2)nc(OCC2CCCCC2)n1 (stereo not shown) | melting point | = | 59 |
| COc1ccc(Nc2nc(NC(C)C)nc(N(C)C3CCNCC3)n2)cc1Cl | melting point | = | 129 |
| COc1ccc(Nc2nc(O)nc(NC3CCCCCC3)n2)cc1Cl | melting point | > | 310 |
| COc1ccc(Nc2nc(Cl)nc(Cl)n2)cc1F | melting point | = | 134 |
| COc1ccc(Nc2nc(Cl)nc(NCC3CCCCC3)n2)cc1F | melting point | = | 156 |
